# system tested: Gonadotropin-releasing hormone receptor (Homo sapiens, UniProt P30968)
# Sequence (P30968 whole entry): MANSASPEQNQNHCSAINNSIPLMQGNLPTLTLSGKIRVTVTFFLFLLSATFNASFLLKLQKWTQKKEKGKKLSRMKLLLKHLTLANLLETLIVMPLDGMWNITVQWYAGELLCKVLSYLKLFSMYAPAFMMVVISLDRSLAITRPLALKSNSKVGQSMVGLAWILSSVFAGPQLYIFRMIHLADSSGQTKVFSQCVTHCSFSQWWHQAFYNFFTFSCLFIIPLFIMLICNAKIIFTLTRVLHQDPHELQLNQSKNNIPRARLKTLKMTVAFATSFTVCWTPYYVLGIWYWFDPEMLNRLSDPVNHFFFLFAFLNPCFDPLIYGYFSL
# method notes: Competitive antagonism of GnRH-induced response in the reporter gene assay
# Format: functional
# measurement context: read-out: pA2 (converted)
Where a SMILES comes first, the peptide text is derived from it. [ ]: non-standard residue; d: D form. dPhe(4-NHCONH2) = NC(=O)Nc1ccc(C[C@@H](N)C(=O)O)cc1; Phe(4-NHCONH2) = NC(=O)Nc1ccc(C[C@H](N)C(=O)O)cc1; dPhe(4-Cl) = N[C@H](Cc1ccc(Cl)cc1)C(=O)O; d2Nal = N[C@H](Cc1ccc2ccccc2c1)C(=O)O; Lys(iPr) = CC(C)NCCCC[C@H](N)C(=O)O; dCit = NC(=O)NCCC[C@@H](N)C(=O)O; d3Pal = N[C@H](Cc1cccnc1)C(=O)O
quantity measured: Kb (nM)
Express your answer in nM, writing the number without its unit.

[[record]]
molecule = "CC(=O)Nc1ccc(C[C@@H](NC(=O)[C@H](Cc2ccc(NC(=O)[C@@H]3CC(=O)NC(=O)N3)cc2)NC(=O)[C@H](CO)NC(=O)[C@@H](Cc2cccnc2)NC(=O)[C@@H](Cc2ccc(Cl)cc2)NC(=O)[C@@H](Cc2ccc3ccccc3c2)NC(C)=O)C(=O)N[C@@H](CC(C)C)C(=O)N[C@@H](CCCCNC(C)C)C(=O)N2CCC[C@H]2C(=O)N[C@H](C)C(N)=O)cc1"
quantity_measured = "Kb"
unit_text = "nM"
meas_value = 1.26

[[record]]
molecule = "CC(=O)N[C@H](Cc1ccc2ccccc2c1)C(=O)N[C@H](Cc1ccc(Cl)cc1)C(=O)N[C@H](Cc1cccnc1)C(=O)N[C@@H](CO)C(=O)N[C@@H](Cc1ccc(NC(N)=O)cc1)C(=O)N[C@H](Cc1ccc(NC(N)=O)cc1)C(=O)N[C@@H](CC(C)C)C(=O)N[C@@H](CCCCNC(C)C)C(=O)N1CCC[C@H]1C(=O)N[C@H](C)C(N)=O (Ac-[d2Nal][dPhe(4-Cl)][d3Pal]S[Phe(4-NHCONH2)][dPhe(4-NHCONH2)]L[Lys(iPr)]P[dA]-NH2)"
quantity_measured = "Kb"
unit_text = "nM"
meas_value = 1.58

[[record]]
molecule = "CC(=O)Nc1ccc(C[C@H](NC(=O)[C@H](CO)NC(=O)[C@@H](Cc2cccnc2)NC(=O)[C@@H](Cc2ccc(Cl)cc2)NC(=O)[C@@H](Cc2ccc3ccccc3c2)NC(C)=O)C(=O)N[C@H](Cc2ccc(CNC(N)=O)cc2)C(=O)N[C@@H](CC(C)C)C(=O)N[C@@H](CCCCNC(C)C)C(=O)N2CCC[C@H]2C(=O)N[C@H](C)C(N)=O)cc1"
quantity_measured = "Kb"
unit_text = "nM"
meas_value = 0.631

[[record]]
molecule = "CC(=O)Nc1ccc(C[C@@H](NC(=O)[C@H](Cc2ccc(NC(=O)[C@@H]3CNC(=O)N3)cc2)NC(=O)[C@H](CO)NC(=O)[C@@H](Cc2cccnc2)NC(=O)[C@@H](Cc2ccc(Cl)cc2)NC(=O)[C@@H](Cc2ccc3ccccc3c2)NC(C)=O)C(=O)N[C@@H](CC(C)C)C(=O)N[C@@H](CCCCNC(C)C)C(=O)N2CCC[C@H]2C(=O)N[C@H](C)C(N)=O)cc1"
quantity_measured = "Kb"
unit_text = "nM"
meas_value = 0.631


Kb measured on CC(=O)Nc1ccc(C[C@@H](NC(=O)[C@H](Cc2ccc(NC(=O)[C@H]3CC(=O)NC(=O)N3)cc2)NC(=O)[C@H](CO)NC(=O)[C@@H](Cc2cccnc2)NC(=O)[C@@H](Cc2ccc(Cl)cc2)NC(=O)[C@@H](Cc2ccc3ccccc3c2)NC(C)=O)C(=O)N[C@@H](CC(C)C)C(=O)N[C@@H](CCCCNC(C)C)C(=O)N2CCC[C@H]2C(=O)N[C@H](C)C(N)=O)cc1 = 1

According to the records, this molecule CC(=O)N[C@H](Cc1ccc2ccccc2c1)C(=O)N[C@H](Cc1ccc(Cl)cc1)C(=O)N[C@H](Cc1cccnc1)C(=O)N[C@@H](CO)C(=O)N[C@@H](Cc1ccc(NC(=O)[C@@H]2CC(=O)NC(=O)N2)cc1)C(=O)N[C@H](Cc1ccc(CNC(N)=O)cc1)C(=O)N[C@@H](CC(C)C)C(=O)N[C@@H](CCCCNC(C)C)C(=O)N1CCC[C@H]1C(=O)N[C@H](C)CO displays Kb of 1

Noted for CC(=O)N[C@H](Cc1ccc2ccccc2c1)C(=O)N[C@H](Cc1ccc(Cl)cc1)C(=O)N[C@H](Cc1cccnc1)C(=O)N[C@@H](CO)C(=O)N[C@@H](Cc1ccc(NC(=O)[C@@H]2CC(=O)NC(=O)N2)cc1)C(=O)N[C@H](Cc1ccc(CNC(N)=O)cc1)C(=O)N[C@@H](CC(C)C)C(=O)N[C@@H](CCCCNC(C)C)C(=O)N1CCC[C@H]1C(=O)N[C@@H](C)CO : its Kb reads 0.631

Notebook: CC(=O)NCc1ccc(C[C@@H](NC(=O)[C@H](Cc2ccc(NC(=O)[C@H]3CC(=O)NC(=O)N3)cc2)NC(=O)[C@H](CO)NC(=O)[C@@H](Cc2cccnc2)NC(=O)[C@@H](Cc2ccc(Cl)cc2)NC(=O)[C@@H](Cc2ccc3ccccc3c2)NC(C)=O)C(=O)N[C@@H](CC(C)C)C(=O)N[C@@H](CCCCNC(C)C)C(=O)N2CCC[C@H]2C(=O)N[C@H](C)C(N)=O)cc1 , Kb read as 1.58

The molecule CC(=O)Nc1ccc(C[C@@H](NC(=O)[C@H](Cc2ccc(NC(=O)[C@@H]3CC(=O)NC(=O)N3)cc2)N(C)C(=O)[C@H](CO)NC(=O)[C@@H](Cc2cccnc2)NC(=O)[C@@H](Cc2ccc(Cl)cc2)NC(=O)[C@@H](Cc2ccc3ccccc3c2)NC(C)=O)C(=O)N[C@@H](CC(C)C)C(=O)N[C@@H](CCCCNC(C)C)C(=O)N2CCC[C@H]2C(=O)N[C@H](C)C(N)=O)cc1 showed Kb equal to 0.794

Lab book: Kb of CC(=O)N[C@H](Cc1ccc2ccccc2c1)C(=O)N[C@H](Cc1ccc(Cl)cc1)C(=O)N[C@H](Cc1cccnc1)C(=O)N[C@@H](CO)C(=O)N[C@@H](Cc1ccc(NC(=O)[C@@H]2CC(=O)NC(=O)N2)cc1)C(=O)N[C@H](Cc1ccc(NC(N)=O)cc1)C(=O)N[C@@H](CC(C)C)C(=O)N[C@@H](CCCCNC(C)C)C(=O)N1CCC[C@H]1C(=O)N[C@H](C)C(N)=O noted as 0.631

Briefly, Kb measured for CC(=O)N[C@H](Cc1ccc2ccccc2c1)C(=O)N[C@H](Cc1ccc(Cl)cc1)C(=O)N[C@H](Cc1cccnc1)C(=O)N[C@@H](CO)C(=O)N[C@@H](Cc1ccc(O)cc1)C(=O)N[C@H](CCCNC(N)=O)C(=O)N[C@@H](CC(C)C)C(=O)N[C@@H](CCCNC(=N)N)C(=O)N1CCC[C@H]1C(=O)N[C@H](C)C(N)=O [CETRORELIX] (Ac-[d2Nal][dPhe(4-Cl)][d3Pal]SY[dCit]LRP[dA]-NH2) : 1.26
